# system tested: HEK cells stably transfected with tetracycline inducible hNR1 and hNR2A (Homo sapiens (Human), UniProt Q05586+Q12879)
# Sequence (Q12879 23-1464, other chains not shown): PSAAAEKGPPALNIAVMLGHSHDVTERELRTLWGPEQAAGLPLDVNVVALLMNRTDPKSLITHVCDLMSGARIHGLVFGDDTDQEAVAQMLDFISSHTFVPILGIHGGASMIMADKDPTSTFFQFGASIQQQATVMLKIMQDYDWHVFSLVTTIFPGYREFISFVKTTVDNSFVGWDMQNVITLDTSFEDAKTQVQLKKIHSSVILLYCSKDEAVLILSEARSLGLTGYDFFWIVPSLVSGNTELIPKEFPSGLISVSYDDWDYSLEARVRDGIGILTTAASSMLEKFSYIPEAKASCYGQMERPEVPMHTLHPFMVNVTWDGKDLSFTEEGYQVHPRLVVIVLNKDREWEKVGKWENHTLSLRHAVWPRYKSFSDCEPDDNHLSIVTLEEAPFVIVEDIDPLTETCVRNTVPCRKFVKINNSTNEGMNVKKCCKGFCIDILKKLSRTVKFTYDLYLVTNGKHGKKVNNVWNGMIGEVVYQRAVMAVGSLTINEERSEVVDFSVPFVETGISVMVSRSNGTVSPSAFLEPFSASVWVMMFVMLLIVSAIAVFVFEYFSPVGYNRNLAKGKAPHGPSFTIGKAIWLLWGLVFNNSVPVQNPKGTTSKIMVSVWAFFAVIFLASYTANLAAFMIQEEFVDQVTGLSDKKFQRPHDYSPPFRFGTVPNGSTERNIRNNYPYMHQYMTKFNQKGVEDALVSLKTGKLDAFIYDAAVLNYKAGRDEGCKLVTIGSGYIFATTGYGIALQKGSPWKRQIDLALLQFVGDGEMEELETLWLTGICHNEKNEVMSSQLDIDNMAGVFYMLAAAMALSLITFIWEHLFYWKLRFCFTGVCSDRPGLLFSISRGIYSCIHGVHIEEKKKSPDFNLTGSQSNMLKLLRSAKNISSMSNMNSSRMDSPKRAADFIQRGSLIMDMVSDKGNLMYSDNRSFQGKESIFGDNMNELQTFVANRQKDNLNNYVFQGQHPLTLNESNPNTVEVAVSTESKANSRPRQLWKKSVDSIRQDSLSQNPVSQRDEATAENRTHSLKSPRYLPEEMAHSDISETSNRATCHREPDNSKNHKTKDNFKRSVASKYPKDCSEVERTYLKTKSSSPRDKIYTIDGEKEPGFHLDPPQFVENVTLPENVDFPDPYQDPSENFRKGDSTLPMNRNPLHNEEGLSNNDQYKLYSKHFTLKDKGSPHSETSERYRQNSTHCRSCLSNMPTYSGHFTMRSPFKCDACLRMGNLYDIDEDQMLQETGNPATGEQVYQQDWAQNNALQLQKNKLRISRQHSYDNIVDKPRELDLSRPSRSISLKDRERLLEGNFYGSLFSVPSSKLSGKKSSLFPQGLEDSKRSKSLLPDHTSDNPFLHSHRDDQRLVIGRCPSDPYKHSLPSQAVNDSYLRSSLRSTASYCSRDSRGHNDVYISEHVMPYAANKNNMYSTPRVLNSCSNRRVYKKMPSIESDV
# run description: Assay 1: Cell-Based Assay (cytosolic calcium, positive allosteric modulation)
# experimental parameters: with 30 μM glycine and 300 nM L-glutamate (EC30); given for compounds reaching maximal response plateaus
measured quantity: EC50 (nM)

Example entries begin here.
CCN(Cc1cc(=O)n2c(-c3ccco3)cccc2n1)c1ccc(F)cc1 ... 371
Cc1cc([C@@H]2C[C@H]2C#N)n2c(=O)cc(Cn3nc(Cl)cc3Cl)nc2c1 ... 222
CCNC(=O)c1c(C)ccc2nc(COc3ccc(F)cc3)cc(=O)n12 ... 3600
Cc1cc(C2CC2C#N)n2c(=O)cc(Cn3nc(Cl)cc3C(F)(F)F)nc2c1 (stereo not shown) ... 269
CCc1cccc2nc(CN(CC)c3ccccc3)cc(=O)n12 ... 11500
CCNC(=O)c1c(C)ccc2nc(Cn3nc(C(F)(F)F)cc3C3CC3)cc(=O)n12 ... 4000

[P] Cc1ccc2nc(Cn3nc(Cl)cc3C(F)(F)F)cc(=O)n2c1C1CC1C#N (stereo not shown)
[Q] N#C[C@H]1C[C@@H]1c1c(F)ccc2nc(Cn3nc(C(F)(F)F)cc3Cl)cc(=O)n12
[R] CCOc1cccc2nc(CN(CC)c3ccc(F)cc3)cc(=O)n12
Exercise: In this exercise, place the 3 compounds in ascending sequence of their recorded EC50. Rank them, then answer with their labels in that order.
Solution: P, Q, R
(P: 227 nM, Q: 3220 nM, R: 5000 nM)
